Reference for the values: the EternaBench riboswitch data

Test system: MS2 coat protein
Test: apparent Kd, MS2 coat protein; higher = weaker binding; RNA-MaP array
Conditions: ligand present: flavin mononucleotide; designed as: OFF switch for flavin mononucleotide
Classify as follows. Reported apparent Kd greater than or equal to 10 nM: MET. Reported apparent Kd below: NOT MET.

Use the examples below as a reference point.
CGGAAGUGCAGCGCUUAAAGUACAUGAGGAUCACCCAUGUGAAAGGAUAUAUCGAAGUCAAAAUAAUAGAAGGUUCAGUGGGAU MET
ACAUGAGGAUCACCCAUGUUUGACUGGGCUUGCUCUCGCCGUAGAAGGUUUCAUUAAGUAGAGGAAAAGGAUAUACACUGGGCC MET
CCACGCUCAGUUAGGAUAUGAUCCAUUACCAGUGAUCAGAAGGAACAUGAGGAUCACCCAUGUACAGUACGAGA MET
GGAUGUAGACAGGAUAUUGCCAUUCCAAUGCGCCAAGAAGGGUCUACAUGAGGAUCACCCAUGUAAAGAAUAGG MET

Could you now consider this next sequence?
[ask] apparent Kd >= 10 nM for `AUAGAAAAUGUAAGGAUAUAUCGAAACAAUAAACGAAAGAAGGAACAUGAGGAUCACCCAUGUAAAGUAAUAAA` ?
[reply] NOT MET
